The reported numbers originate from patent US20230322924A1.

# tested-on: T1, Cyno CD33 full length, expressed on HEK293F cells (cynomolgus monkey)
# T1 construct: HEK293F cells transduced with lentivirus containing full length cyno CD33 (Genbank XP_005590138.1); also called cyCD33
# experiment-notes: flow cytometry, HEK293F cells expressing cyno CD33
# Protocol: OMNIRat antibodies identified via immunization, v-region cloned and subsequently expressed and purified were characterized further for binding to CD33 expressing cells and binding to recombinant antigens. The purified antibodies were assessed for binding to stably transfected HEK293F cells expressing human CD33 or cyno CD33 (generation described above) along with the parental HEK293F as negative control. […] Antibody binding was assessed by the mean fluorescence intensity in the AF647 channel.
Exercise: for every item that follows, state its recorded MFI at 6 nM mAb.
Output spec: scalar in MFI, unitless text.

Need MFI at 6 nM mAb of C33B55 (antibody, IgG1, V domains shown, huIgG1 F405L; also called C33F60; C33H45/C33L11) VH: QVQLVESGGGVVQPGRSLRLSCAASGFTFSSYGMHWVRQSPGKGLEWVAVISYDGSNKYCADSVKGRFTISRDNSKSTLYLQMNSLRAEDTAVYYCAKDFRSLDWLPPDSTSYDGMDVWGQGTTVTVSS VL: SYELTQPPSVSVSPGQTASITCSGHKLGDKYACWYQQKPGQSPVVVIYKDSKRPSGIPERFSGSNFGNTATLTISGTQAMDEADYYCQAWDSSTVVFGGGTKLTVL , thanks.
9990

Need MFI at 6 nM mAb of C33B73 (antibody, IgG1, V domains shown, huIgG1 F405L; also called C33F78; C33H66/C33L60) VH: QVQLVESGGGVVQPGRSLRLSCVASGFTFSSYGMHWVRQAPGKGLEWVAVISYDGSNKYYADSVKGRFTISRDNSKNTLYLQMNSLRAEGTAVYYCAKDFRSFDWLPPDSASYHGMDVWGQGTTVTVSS VL: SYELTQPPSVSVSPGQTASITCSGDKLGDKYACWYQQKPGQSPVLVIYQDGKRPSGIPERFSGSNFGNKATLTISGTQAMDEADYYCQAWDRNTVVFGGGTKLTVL , thanks.
6990

Need MFI at 6 nM mAb of C33B63 (antibody, IgG1, V domains shown, huIgG1 F405L; also called C33F68; C33H51/C33L34) VH: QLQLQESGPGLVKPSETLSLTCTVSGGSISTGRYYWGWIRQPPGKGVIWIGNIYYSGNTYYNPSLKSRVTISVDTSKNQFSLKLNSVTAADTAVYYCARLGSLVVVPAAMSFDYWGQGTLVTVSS VL: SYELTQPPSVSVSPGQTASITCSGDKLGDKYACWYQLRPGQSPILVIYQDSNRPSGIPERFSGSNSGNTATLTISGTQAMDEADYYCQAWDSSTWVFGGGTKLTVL , thanks.
11600

Need MFI at 6 nM mAb of C33B96 (antibody, IgG1, V domains shown, huIgG1 F405L; also called C33F101; C33H99/C33L37) VH: EVQLVESGGGLVQPGGSLRLSCAASGFTFSSYWMTWVRPAPGKGLEWVANIKRDGGEKYYVDSVKGRFTISRDNAANSLYLQMNSLRVEDTAVYYCARPFYDHFDYWGQGTLVTVSS VL: SYVLTQPPSVAVAPGQTARITCGGSNIGKISVHWYQQKAGQAPVLVVHDDRARPSGIPERLSGSNSGTTATLTISRVEVGDEADYYCQVWNSSSVHPVFGGGTKLTVL , thanks.
20100
